TEST_METHOD_NOTES: qHTS Assay for Agonists of the Thyroid Stimulating Hormone Receptor;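 also: the control signal comes from parental cells without the receptor; % of control where 0% means no effect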
TEST_CONDITIONS: HEK293-CNG-TSHR cells, membrane potential dye, cAMP; measured here: parental cells max response
Hit rate of the full screen: of about 73,000 compounds, about 350 (0.48%) were called active. Not shown: some 17% with an inconclusive outcome. What follows is part of a selection rich in actives, with near analogues and random picks from the rest.

{"columns": ["SMILES_INPUT", "activation"],
 "data": [
  ["CCOc1cc(/C=N/O)cc(Br)c1OC", "15%"],
  ["O=C(Cn1nnc(-c2ccccc2)n1)NCc1ccc2c(c1)OCO2", "12.1%"],
  ["Fc1ccc(-c2nnc3sc(-c4ccc5c(c4)OCO5)nn23)cc1", "23.4%"],
  ["O=C1C(c2[nH]c3ccccc3c2O)=Nc2ccccc21", "-17.9%"],
  ["Cc1ccc(C(=O)Nc2nnc(-c3ccncc3)s2)o1", "-13.3%"],
  ["Cc1cccc2c1N(CC(=O)OC(C)C)C(=O)C2=O", "-9.41%"]
]}

* * *

Reported values of activation for individual entries
TEST_METHOD_NOTES: qHTS Assay for Agonists of the Thyroid Stimulating Hormone Receptor;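 also: the control signal comes from parental cells without the receptor; % of control where 0% means no effect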
TEST_CONDITIONS: HEK293-CNG-TSHR cells (CNG channel as cAMP sensor), membrane potential dye, cAMP; measured here: parental cells max response
Screen size: about 73,000 compounds; about 350 (0.48%) were called active. Another 17% or so got no clear call; they are omitted. The sample as a whole holds a higher share of actives than the screen did.

{"columns": ["MOLECULE", "UNIT_LABEL", "activation"],
 "data": [
  ["COCCCNC(=O)COc1cc(C)c(Cl)c(C)c1", "%", 3.68],
  ["COC(=O)C1(C)C=CCN1C(=O)c1ccccc1 (stereo unspecified)", "%", 22],
  ["c1ccc(-c2nnc3n2NC(c2ccc4c(c2)OCO4)S3)cc1 (stereo unspecified)", "%", 27.8],
  ["Cn1c(=O)[nH]c(=O)c2c1nc(NCCCn1ccnc1)n2Cc1cccc(Br)c1", "%", 20.4],
  ["Cn1nc(-c2ccc(N3CCOCC3)c(NC(=O)c3ccccc3)c2)c2ccccc2c1=O", "%", 29.3],
  ["OC(COc1cccc(OCC(O)CN2CCCC2)c1)CN1CCCC1 (stereo unspecified)", "%", -1.83],
  ["COc1ccc(C[C@H](N)C(=O)N[C@@H]2[C@H](O)[C@H](n3cnc4c(N(C)C)ncnc43)O[C@@H]2CO)cc1", "%", -1.32],
  ["CCc1cc(=O)oc2cc(OCC(=O)N3CCCc4ccccc43)ccc12", "%", -4.75],
  ["COC(=O)[C@@]1(Cc2ccc(F)cc2)[C@H]2c3cc(C(=O)N(C)C)n(CCc4c[nH]c5ccc(OC)cc45)c3C[C@H]2CN1C(=O)c1ccccc1", "%", 3.36],
  ["CCNC(=S)NCC", "%", -3.45],
  ["Oc1ccc(Cl)cc1/C=N/c1nc2ccccc2[nH]1", "%", 6.32],
  ["N#Cc1cccc(CSc2nnc(CCCO)n2-c2ccccc2)c1", "%", -1.39],
  ["CN1CCC(CNC(=O)c2ccc(-n3c(=O)c(=O)[nH]c4ccccc43)cc2)CC1", "%", -0.798],
  ["Cc1noc(C)c1-c1nc(Nc2ccccc2)c2ccccc2n1", "%", -3.31],
  ["CC1CN(c2cc(=O)n(Cc3ccc(F)cc3)c(=O)[nH]2)CC(C)O1 (stereo unspecified)", "%", 3.44],
  ["COc1ccc(OC)c(NC(=O)CSc2nc(N)c(-c3ccccc3)c(=O)[nH]2)c1", "%", 9.04],
  ["COc1cccc(N2CCN(C3CC(=O)N(c4ccc(Cl)cc4)C3=O)CC2)c1 (stereo unspecified)", "%", -14.4],
  ["COc1ccc2oc(=O)c(C(=O)N3CCCc4ccccc43)cc2c1", "%", -9.12],
  ["Cc1occc1C(=O)N1CCCc2ccccc21", "%", 23.6],
  ["c1ccc2c(Nc3ccncc3)nc(-c3ccc4c(c3)OCO4)nc2c1", "%", -4.18],
  ["CCCCNc1nc2c(c(=O)[nH]c(=O)n2C)n1CCOc1ccccc1", "%", 0.873],
  ["COc1ccc(-c2nnc(SC(=O)N3c4ccccc4Sc4ccccc43)o2)cc1", "%", -13.7],
  ["CCCCCCN(C(=O)CCCCCN1C(=O)NC(c2ccc(C(F)(F)F)cc2)C(C(=O)OCc2ccccc2)=C1C)C(C(=O)NCCCC)c1ccc(OCC(=O)OC)c(C(=O)OC)c1 (stereo unspecified)", "%", 18.9],
  ["COc1ccc(OC)c(NC(=O)CC(Cc2ccccc2OC)C(=O)O)c1 (stereo unspecified)", "%", 9.66],
  ["CC(C)(C)[Si](OCC[C@@H]1C[C@@]1(C)[C@@H](NP(=O)(c1ccccc1)c1ccccc1)c1ccccc1)(c1ccccc1)c1ccccc1", "%", 13.3],
  ["C[C@@H](c1ccccc1)N1C(=O)[C@H]2[C@H]3[C@H](O)[C@H](O)C/C(=N/OC[C@@H](O)COCc4ccco4)[C@@H]3CC[C@@H]2C1=O", "%", 5.7],
  ["Nc1ccccc1N", "%", -14.7],
  ["Cc1cc(N=CC2=C(O)CCCC2=O)no1", "%", 5.56],
  ["C=CCn1cnc2scc(-c3ccccc3)c2c1=O", "%", -2.42],
  ["Cn1c(=O)n2n(c1=O)[C@H]1[C@H](O)[C@H]3O[C@H]3C(=O)[C@H]1CC2", "%", 0.42],
  ["CCCC(Cl)CCCC(Cl)CCC(Cl)CCC(Cl)CCC(Cl)CCCC(Cl)CCC (stereo unspecified)", "%", 3.46],
  ["Cc1ccc(C(=O)N2CCN(C3CCCCC3)CC2)s1", "%", -11.9],
  ["O=C(Cn1cc2c(n1)CCCCC2)NCCN1CCOCC1", "%", 1.85],
  ["COC(=O)[C@@H]1CC[C@H](C)[C@@H](c2ccc(C)cc2)N1C(=O)c1ccc(/C=N\\OC[C@@H](O)COCc2ccco2)cc1", "%", 44.4],
  ["O=C(O)c1nccnc1C(=O)Nc1ccc(Br)cn1", "%", 3.73],
  ["CC1(C)OC(C(O)(c2ccccc2)c2ccccc2)C(C(O)(c2ccccc2)c2ccccc2)O1 (stereo unspecified)", "%", 25.8],
  ["CCOC(=O)c1cccc(NC(=O)C2CCCN(S(=O)(=O)c3cnc[nH]3)C2)c1 (stereo unspecified)", "%", 5.88],
  ["C[C@@H]1/C=C\\CC(=O)OC[C@H]2O[C@@H](C=C[C@@H]2O)[C@H](C)/C=C\\CC(=O)OC[C@H]2O[C@H]1C=C[C@@H]2O", "%", -6.65],
  ["CCOC(=O)CSc1nnc(-c2ccncc2)o1", "%", -3.39],
  ["CCc1ccccc1NC(=O)c1cccs1", "%", -1.56],
  ["O=C(CCn1c(=O)oc2ccccc21)Nc1ccon1", "%", 5.04]
]}
